test_summary: folding enthalpy; higher = less favourable; fluorescence melt of hairpins on a sequencing array, two-state fit
experimental_setup: sodium 0.088 M
measurement_type: folding enthalpy (kcal/mol)
Value expressed in kcal/mol; do not type the unit.

Given the entry GCGACCGAAAGGTTCGC ((((((....))).))) , report its measured folding enthalpy.
-33

Same question, GACACCGAAAGGTCTGTC ((((((....)))..))) this time
-16.6

Repeat with GATCAATTCTTGATC ((((((...))))))
-29.1

Same thing, different sequence: CGTTCGAAAGAACG (((((....)))))
-30.6

Moving on to GCGTTTGGAAACAAGCGC (((.(((....))).)))
-45.6

How about this sequence: GTTGTGGGAAACCGTAAC (((..((....))..)))
-13

How about GGTCGGTCGAAAGACACC (((..(((....)))))) ?
-13.4

What do you get for GGTACCGCGAAAGCGACC (((..(((....)))))) ?
-10.2

What would you report for GACGTCGGAAACGGTGTC (((..((....))..))) ?
-25.7

Further, for GGGCTAGGAAACTAACCC (((.(((....))).))) ?
-31.5

Now consider GATTTCGGAAACGAAACC (.(((((....))))).) and answer again.
-19.6

Same lookup for GCAGTCCGAAAGGATGC (((.(((....)))))) , please.
-32.1

Moving on to GTAGCGGGAAACCGTTGC (.(.(((....))).).)
-19.2

Entry to check: GATCGACGGTCGATC ((((((...))))))
-43.7

Entry to check: GTAGTCACGAAAGTGTAC (((..(((....))))))
-12

Follow-up item: GATCTCATAGGAGATC ((((((....))))))
-38.1

Lookup GCTGGTGGAAACACCAAC (.(((((....))))).)
-14.4

Try the sequence GATCCTGTGCAGGATC ((((((....))))))
-43.2

Then this sequence: GTCAGGGGAAACTCTGAC (((((.(....).)))))
-33.4

One more sequence: GCCAACGGAAACATTGGC (((((.(....).)))))
-31.9

Entry GGGTTCGAAAGAACGCCC ((((((....)))..))) please
-11.2

Moving on to the next sequence: GCTAATCGAAAGATGAGC (((.(((....))).)))
-31.4

Let us now turn to GAAATGGCGAAAGCCTTC (((..(((....))))))
-7.87

Now the same for GATCAGGCGGCTGATC ((((((....))))))
-47.8

Follow-up item: GATATCCGAAAGGACATC (((.(((....))).)))
-22

Okay, and GCATCCGAAAGGAGCTGC ((((((....)))..))) ?
-19.2

Same again, this time with GATCGGGCCACCGATC ((((((....))))))
-39.5

Now give it for GTACTCCGAAAGGATAC (((.(((....)))))) too.
-21.6

How about GAAATGGGAAACCATTTC (((((((....))))))) ?
-37.5

Repeat for the following sequence: GGTCGCCGAAAGGCCACC (((.(((....))).)))
-15.7

Please answer likewise for GTCACGGGAAACCGTGGC (.(((((....))))).)
-19

Input GGGTTTCGAAAGAACCCC (((.(((....))).)))
-26.1
